Reference source: paper PMC12519060

assay_system: UniProt P36639
result_type: IC50 (nM)

> print(dat)
                           substance.smiles  obs.value
1  C[C@]12Cc3c[nH]nc3C[C@@H]1CC[C@@H]1[C@@H]2CC[C@@]2(C)[C@H]1CC[C@]2(C)O         26
